Data credit: PubChem BioAssay AID485297

test: qHTS Assay for Rab9 Promoter Activators; settings: Huh7 Rab9 promoter-luciferase reporter, luminescence, 24 h; series mostly up to 9.22 µM; further: nearly all actives have a fitted effect of over 60% in size
Screen size: about 320,000 compounds; about 9,100 (2.8%) were called active. About 3% were inconclusive and are not listed. The call rests on the fitted dose curve; in most records, active means well fitted activation curve with a large enough effect; inconclusive means small, poorly fitted or top-dose-only effect; inactive means no such curve, though single readings can be large or run the other way. Many of the other results were omitted from the sample, so actives are more common in it than they were.
Hi there, use one of these labels in your reply, thanks! True = active, False = inactive

Compound	Assigned class
O=C(Nc1ccccc1-c1nc2ccccc2[nH]c1=O)c1cccs1	False
CC1CCCN(c2ccc(C(=O)NCCc3ccccc3)cn2)C1 (centres undefined)	True
CS(=O)(=O)c1sc2nc(-c3ccccc3)cc(-c3ccccc3)c2c1N	False
Cc1ccc(-c2csc(-c3c[nH]c4ccccc34)n2)cc1	True

Input line: Hi team, can someone confirm the assay call for NC(=O)c1sc2nc3c(c(-c4ccccc4)c2c1N)CCC3 ?
Output line: False

Input line: Hi team, can someone confirm the assay call for CN(C)c1ccnc2sc(C(=O)c3ccccc3)c(N)c12 ?
Output line: True

Input line: Hi team, can someone confirm the assay call for CCCCc1ccc(NC(=S)N2CCCC(CO)C2)cc1 (centres undefined) ?
Output line: True

Input line: Hi team, can someone confirm the assay call for CCC(C)N(C(=O)CSc1nnnn1-c1ccccc1OC)C1CCS(=O)(=O)C1 (centres undefined) ?
Output line: False

Input line: Hi team, can someone confirm the assay call for CCOCC(=O)NCc1ccc2c(c1)cc(C)n2C ?
Output line: False

Input line: Hi team, can someone confirm the assay call for Clc1ccc(-c2nnc(SCc3nc4ccccc4s3)o2)cc1 ?
Output line: False

Input line: Hi team, can someone confirm the assay call for COc1cccc(NC(=O)CN(C)C(=O)/C=C/c2cn(-c3ccccc3)nc2-c2cccs2)c1 ?
Output line: False

Input line: Hi team, can someone confirm the assay call for Nc1c(-c2cccc(Cl)c2)cnn1-c1cccc([N+](=O)[O-])c1 ?
Output line: False

Input line: Hi team, can someone confirm the assay call for CC1CCN(c2c(NCc3ccc(C(=O)NCc4ccccc4)cc3)c(=O)c2=O)CC1 ?
Output line: False

Input line: Hi team, can someone confirm the assay call for C/C(=N\Nc1ncc(Cl)cc1Cl)c1cccs1 ?
Output line: True

Input line: Hi team, can someone confirm the assay call for CCCCCCCC(=O)OC(CN1CCCCCC1)CN1CCCC1=O (centres undefined) ?
Output line: False

Input line: Hi team, can someone confirm the assay call for O=C(NCCSc1ncc(-c2ccccc2)[nH]1)c1ccco1 ?
Output line: False

Input line: Hi team, can someone confirm the assay call for CCCc1cc(-c2nc(-c3ccc(C)cc3)cs2)ccn1 ?
Output line: False

Input line: Hi team, can someone confirm the assay call for FC(F)(F)c1cnc(Oc2ccccc2-c2nnc(-c3ccc(Cl)cc3)o2)c(Cl)c1 ?
Output line: False

Input line: Hi team, can someone confirm the assay call for O=C(NCCSc1ccccc1)c1ccco1 ?
Output line: True

Input line: Hi team, can someone confirm the assay call for CSc1ccccc1-c1nnc(-c2ccc(Cl)cc2)o1 ?
Output line: True

Input line: Hi team, can someone confirm the assay call for CCN(CC)C(=O)c1sc2nc(-c3ccccc3)ccc2c1N ?
Output line: True

Input line: Hi team, can someone confirm the assay call for Cc1ccc2c(N)c(C(=O)c3ccccc3)sc2n1 ?
Output line: True

Input line: Hi team, can someone confirm the assay call for NS(=O)(=O)c1ccc(CNC(=O)c2cccc(S(=O)(=O)N3CCc4ccccc43)c2)cc1 ?
Output line: False

Input line: Hi team, can someone confirm the assay call for C/C(=N\Nc1nc2ccccc2[nH]1)c1cccs1 ?
Output line: True
